System: myeloid leukemia patient primary cells Pat.11
Assay: cell viability (% survival relative to DMSO control); higher = less cytotoxic
Conditions: 1 nM; 72 h
# reported cell viability; entries follow
assay.readout: cell viability

• O=C(O)Cn1nnc(-c2cc(N3CCC(Oc4cc(F)ccc4Br)CC3)no2)n1 [MK-8245] = > 100%
• O=C1c2cc([N+](=O)[O-])ccc2-n2c1nc1ccccc1c2=O [GNF-Pf-3777] = > 100%
• O=C(O)C1=CC(=C(c2ccc(O)c(C(=O)O)c2)c2ccc(O)c(C(=O)O)c2)C=CC1=O [Aurintricarboxylic acid] = > 100%
• C[C@H](NC(=O)c1sccc1OCc1ccc(Cl)cc1)c1ccccc1 = 93%
